B1: TPR t1 (parent)
chain: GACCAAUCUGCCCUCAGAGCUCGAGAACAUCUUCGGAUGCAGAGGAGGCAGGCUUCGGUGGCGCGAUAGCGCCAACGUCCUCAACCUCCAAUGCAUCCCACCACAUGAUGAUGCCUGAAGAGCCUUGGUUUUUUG

# Variants of: B1
# MEASUREMENT_PROTOCOL: polymerase ribozyme fitness, log enrichment relative to wild type (log ratio); higher = more active; in vitro selection for triplet polymerase activity
So basically every entry gets a class from its polymerase ribozyme fitness (log ratio), ranges being lower (below -6), middle (-6 to below -2), upper (-2 or more)

Use the examples below as a reference point.
* A16G U54C | upper
* C34U U54A G69U C79U G93A U96A | lower
* C40U U109C | middle
* G45U G61A C62U C79A | middle
* C12A U130A | middle

IN: Looking at C20U U32G , which class would you pick?
OUT: lower

IN: What would you report for G71U A84C ?
OUT: upper

IN: Moving on to the next variant: C56U A66U G69U C80A A121C U130A
OUT: lower

Data origin, for the record: the RNAGym collection of RNA variant scans (doi:10.1073/pnas.2313332121)
